Hey, just so you know, these numbers are from patent US11020399B2.

study-system: PI3kα (Homo sapiens, UniProt P42336)
Sequence (P42336 whole entry, one chain of several): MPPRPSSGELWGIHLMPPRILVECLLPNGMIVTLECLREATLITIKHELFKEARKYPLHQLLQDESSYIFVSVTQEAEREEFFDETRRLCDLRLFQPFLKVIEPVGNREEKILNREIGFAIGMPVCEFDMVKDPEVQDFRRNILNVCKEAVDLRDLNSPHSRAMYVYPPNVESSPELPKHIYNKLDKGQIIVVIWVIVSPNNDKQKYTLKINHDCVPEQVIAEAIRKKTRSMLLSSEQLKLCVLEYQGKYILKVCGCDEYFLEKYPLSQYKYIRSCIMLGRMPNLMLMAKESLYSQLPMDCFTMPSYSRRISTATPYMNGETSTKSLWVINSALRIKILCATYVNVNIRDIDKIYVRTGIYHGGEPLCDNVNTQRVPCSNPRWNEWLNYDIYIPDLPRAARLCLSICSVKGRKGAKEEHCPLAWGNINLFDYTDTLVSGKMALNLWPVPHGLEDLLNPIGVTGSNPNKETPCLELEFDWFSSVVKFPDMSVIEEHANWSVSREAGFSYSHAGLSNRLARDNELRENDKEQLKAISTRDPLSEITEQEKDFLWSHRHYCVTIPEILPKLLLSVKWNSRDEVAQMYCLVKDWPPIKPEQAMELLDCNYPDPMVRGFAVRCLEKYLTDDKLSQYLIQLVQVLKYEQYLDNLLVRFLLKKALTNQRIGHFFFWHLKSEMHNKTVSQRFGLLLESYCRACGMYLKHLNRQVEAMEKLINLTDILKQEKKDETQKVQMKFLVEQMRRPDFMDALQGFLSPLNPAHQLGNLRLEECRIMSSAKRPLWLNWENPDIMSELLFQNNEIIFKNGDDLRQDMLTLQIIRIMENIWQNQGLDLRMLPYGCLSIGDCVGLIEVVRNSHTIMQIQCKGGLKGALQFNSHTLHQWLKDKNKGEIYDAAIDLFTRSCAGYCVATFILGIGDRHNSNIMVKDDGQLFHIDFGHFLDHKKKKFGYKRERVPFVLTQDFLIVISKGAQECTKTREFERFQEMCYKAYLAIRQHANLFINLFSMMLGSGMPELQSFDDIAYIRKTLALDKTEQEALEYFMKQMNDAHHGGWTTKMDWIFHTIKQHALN
procedure-text: Fluorescent (HTRF) determination of PI3 kinase enzyme activity, PI3Kα
Type: biochemical
condition-parameters: 1 uM
# inhibition at 1 µM per record follows

{"columns": ["compound", "inhibition at 1 µM"],
 "data": [
  ["COc1cccc2oc(Cn3cnc4c(N)ncnc43)c(-c3cccc(F)c3)c(=O)c12", "25 to 50%"],
  ["CC(c1oc2cccc(F)c2c(=O)c1-c1cccc(F)c1)n1cnc2c(N)ncnc21 (stereo not shown)", "50 to 75%"],
  ["Cc1n[nH]c2cc(-c3nn([C@@H](C)c4oc5cccc(F)c5c(=O)c4-c4cccc(F)c4)c4ncnc(N)c34)ccc12", "0 to 25%"],
  ["CC(c1oc2cccc(F)c2c(=O)c1-c1cccc(F)c1)n1nc(-c2ccc(NCCO)c(F)c2)c2c(N)ncnc21 (stereo not shown)", "25 to 50%"],
  ["CC(Nc1ncnc2[nH]cnc12)c1oc2cccc(F)c2c(=O)c1-c1cccc(F)c1 (single isomer, unassigned; (-)) [Example 78]", "0 to 25%"],
  ["CC(C)Oc1ccc(-c2nn(C(C)c3oc4cccc(F)c4c(=O)c3-c3cccc(F)c3)c3ncnc(N)c23)cn1 (stereo not shown)", "25 to 50%"],
  ["CC(C)Oc1ccc(-c2nn(C(C)c3oc4cccc(F)c4c(=O)c3-c3cn[nH]c3)c3ncnc(N)c23)cc1F (stereo not shown)", "0 to 25%"],
  ["CC(Nc1ncnc2[nH]cnc12)c1oc2cccc(F)c2c(=O)c1-c1cccc(F)c1 (single isomer, unassigned; (+)) [Example 68]", "25 to 50%"],
  ["CC(=O)c1ccc(-c2nn(C(C)c3oc4cccc(F)c4c(=O)c3-c3cccc(F)c3)c3ncnc(N)c23)cc1F (stereo not shown)", "25 to 50%"],
  ["CC(c1oc2cccc(F)c2c(=O)c1-c1cccc(F)c1)n1nc(-c2cccc(NS(C)(=O)=O)c2)c2c(N)ncnc21 (stereo not shown)", "25 to 50%"],
  ["Cc1n[nH]c2cc(-c3nn(C(C)c4oc5cccc(F)c5c(=O)c4-c4cccc(F)c4)c4ncnc(N)c34)ccc12 (stereo not shown)", "25 to 50%"],
  ["CNS(=O)(=O)c1ccc(-c2nn(C(C)c3oc4cccc(F)c4c(=O)c3-c3cccc(F)c3)c3ncnc(N)c23)cc1 (stereo not shown)", "25 to 50%"],
  ["CC(c1oc2cccc(F)c2c(=O)c1-c1cccc(F)c1)n1ncc2c(N)ncnc21 (stereo not shown)", "25 to 50%"],
  ["CC(c1oc2cccc(F)c2c(=O)c1-c1ccccc1)n1ncc2c(N)ncnc21 (stereo not shown)", "0 to 25%"],
  ["CC(C)Oc1ccc(-c2nn(C(C)c3oc4cccc(F)c4c(=O)c3-c3cccc(F)c3)c3ncnc(N4CCOCC4)c23)cc1F (stereo not shown)", "0 to 25%"],
  ["CC(C)C(=O)Nc1ccc(-c2nn(C(C)c3oc4cccc(F)c4c(=O)c3-c3cccc(F)c3)c3ncnc(N4CCOCC4)c23)cc1F (stereo not shown)", "25 to 50%"],
  ["CC(c1oc2cccc(F)c2c(=O)c1-c1cccc(F)c1)n1nc(N2CCOCC2)c2c(N)ncnc21 (stereo not shown)", "0 to 25%"],
  ["Nc1ncnc2c1c(-c1cc(O)cc(F)c1)nn2Cc1oc2cccc(F)c2c(=O)c1-c1cccc(F)c1", "25 to 50%"],
  ["Cc1nn(C)c2cc(-c3nn(C(C)c4oc5cccc(F)c5c(=O)c4-c4cccc(F)c4)c4ncnc(N)c34)ccc12 (stereo not shown)", "25 to 50%"],
  ["Cc1nc2cc(-c3nn(C(C)c4oc5cccc(F)c5c(=O)c4-c4cccc(F)c4)c4ncnc(N)c34)ccc2[nH]1 (stereo not shown)", "0 to 25%"],
  ["CC(c1oc2cccc(F)c2c(=O)c1-c1ccc(F)cc1)n1cnc2c(N)nc(F)nc21 (stereo not shown)", "0 to 25%"],
  ["CC(c1oc2cccc(F)c2c(=O)c1-c1cccc(F)c1)n1nc(-c2cn[nH]c2)c2c(N)ncnc21 (stereo not shown)", "25 to 50%"],
  ["CC(c1oc2cccc(F)c2c(=O)c1-c1ccc(F)cc1)n1nc(-c2ccc(OC(F)F)c(F)c2)c2c(N)ncnc21 (single isomer, unassigned) [Example 97]", "25 to 50%"],
  ["CC(C)c1n[nH]c2cc(-c3nn(C(C)c4oc5cccc(F)c5c(=O)c4-c4cccc(F)c4)c4ncnc(N)c34)ccc12 (stereo not shown)", "0 to 25%"],
  ["CC(C)Oc1ccc(-c2nn(C(C)c3oc4cccc(F)c4c(=O)c3-c3cccc(F)c3)c3ncnc(N)c23)cc1Cl (stereo not shown)", "50 to 75%"],
  ["Cc1ccc(-c2nn(C(C)c3oc4cccc(F)c4c(=O)c3-c3cccc(F)c3)c3ncnc(N)c23)s1 (stereo not shown)", "0 to 25%"],
  ["CCC(Nc1ncnc2[nH]cnc12)c1oc2cccc(F)c2c(=O)c1-c1ccccc1 (stereo not shown)", "25 to 50%"],
  ["Cc1cccc2oc([C@H](C)n3nc(-c4ccc(OC(C)C)c(F)c4)c4c(N)ncnc43)c(-c3ccccc3)c(=O)c12 (single isomer, unassigned)", "0 to 25%"]
]}

----------
# inhibition at 0.3 µM per record follows
study-system: PI3kδ (Homo sapiens, UniProt O00329)
Sequence (O00329 whole entry): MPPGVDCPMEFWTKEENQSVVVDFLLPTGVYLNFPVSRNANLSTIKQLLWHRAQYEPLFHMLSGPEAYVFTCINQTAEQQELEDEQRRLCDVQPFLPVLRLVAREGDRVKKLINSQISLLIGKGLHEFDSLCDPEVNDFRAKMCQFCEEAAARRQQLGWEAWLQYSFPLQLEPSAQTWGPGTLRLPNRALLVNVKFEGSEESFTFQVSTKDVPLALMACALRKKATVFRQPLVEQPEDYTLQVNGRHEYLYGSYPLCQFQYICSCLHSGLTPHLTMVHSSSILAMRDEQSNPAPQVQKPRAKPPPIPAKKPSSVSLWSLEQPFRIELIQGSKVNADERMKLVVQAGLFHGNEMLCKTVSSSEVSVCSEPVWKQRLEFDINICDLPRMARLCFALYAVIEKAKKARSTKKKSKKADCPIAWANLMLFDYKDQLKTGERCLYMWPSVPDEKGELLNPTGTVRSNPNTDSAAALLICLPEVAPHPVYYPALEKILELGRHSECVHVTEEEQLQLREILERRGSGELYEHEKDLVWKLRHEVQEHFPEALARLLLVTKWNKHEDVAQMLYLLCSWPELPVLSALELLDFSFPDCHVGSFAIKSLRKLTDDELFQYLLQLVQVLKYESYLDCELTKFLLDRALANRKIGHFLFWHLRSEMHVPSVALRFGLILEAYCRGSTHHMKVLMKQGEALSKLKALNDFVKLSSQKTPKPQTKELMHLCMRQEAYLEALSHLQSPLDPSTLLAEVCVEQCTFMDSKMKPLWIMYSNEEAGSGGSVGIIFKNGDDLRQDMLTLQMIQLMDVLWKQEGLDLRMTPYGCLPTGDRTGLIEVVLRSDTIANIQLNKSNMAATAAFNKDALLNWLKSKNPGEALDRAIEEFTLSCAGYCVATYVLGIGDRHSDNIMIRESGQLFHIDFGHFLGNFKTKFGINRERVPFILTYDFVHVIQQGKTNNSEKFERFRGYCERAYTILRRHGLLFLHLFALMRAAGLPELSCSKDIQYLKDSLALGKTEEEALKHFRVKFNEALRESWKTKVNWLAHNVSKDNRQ
Sequence (P27986 whole entry partner): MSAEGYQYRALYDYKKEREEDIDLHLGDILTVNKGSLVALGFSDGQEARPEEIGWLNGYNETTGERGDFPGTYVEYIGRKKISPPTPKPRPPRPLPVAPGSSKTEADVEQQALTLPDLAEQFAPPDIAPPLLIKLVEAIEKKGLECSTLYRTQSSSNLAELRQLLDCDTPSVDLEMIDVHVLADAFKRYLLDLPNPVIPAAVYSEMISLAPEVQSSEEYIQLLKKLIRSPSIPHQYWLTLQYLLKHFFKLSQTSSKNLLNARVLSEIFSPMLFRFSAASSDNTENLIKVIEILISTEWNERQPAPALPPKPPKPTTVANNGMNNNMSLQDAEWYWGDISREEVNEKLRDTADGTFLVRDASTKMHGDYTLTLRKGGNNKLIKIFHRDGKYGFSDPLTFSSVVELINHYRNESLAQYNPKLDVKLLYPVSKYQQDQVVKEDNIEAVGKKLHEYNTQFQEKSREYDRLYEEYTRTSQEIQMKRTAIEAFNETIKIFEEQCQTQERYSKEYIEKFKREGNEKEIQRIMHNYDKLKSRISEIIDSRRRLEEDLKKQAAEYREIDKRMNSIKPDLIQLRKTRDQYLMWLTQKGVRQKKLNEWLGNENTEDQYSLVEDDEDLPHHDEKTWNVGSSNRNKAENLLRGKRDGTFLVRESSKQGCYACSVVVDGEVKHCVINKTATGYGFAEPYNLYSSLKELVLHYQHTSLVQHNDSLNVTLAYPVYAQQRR
procedure-text: Fluorescent (HTRF) determination of PI3 kinase enzyme activity, PI3Kδ
Assay type: biochemical
condition-parameters: 300 nM (Examples 1-59)
quantity-measured: inhibition at 0.3 µM

{"columns": ["molecule", "quantity-measured", "recorded-result"],
 "data": [
  ["CC(Nc1ncnc2[nH]cnc12)c1oc2cccc(F)c2c(=O)c1-c1cccc(F)c1 (stereo not shown)", "inhibition at 0.3 µM", "0 to 25%"],
  ["CC(c1oc2cccc(F)c2c(=O)c1-c1cccc(F)c1)n1nc(-c2ccc(OC3CCNCC3)c(F)c2)c2c(N)ncnc21 (stereo not shown)", "inhibition at 0.3 µM", "25 to 50%"],
  ["COc1cccc2oc(Cn3nc(-c4ccc(OC(C)C)c(F)c4)c4c(N)ncnc43)c(-c3cccc(F)c3)c(=O)c12", "inhibition at 0.3 µM", "50 to 75%"],
  ["CCc1nn(C(C)c2oc3cccc(F)c3c(=O)c2-c2cccc(F)c2)c2ncnc(N)c12 (stereo not shown)", "inhibition at 0.3 µM", "50 to 75%"],
  ["Cc1cc(-c2nn(C(C)c3oc4cccc(F)c4c(=O)c3-c3cccc(F)c3)c3ncnc(N)c23)ccc1OC(C)C (stereo not shown)", "inhibition at 0.3 µM", "75 to 100%"],
  ["CC(c1oc2cccc(F)c2c(=O)c1-c1cccc(F)c1)n1nc(N2CCCC2)c2c(N)ncnc21 (stereo not shown)", "inhibition at 0.3 µM", "0 to 25%"],
  ["CC(c1oc2cccc(F)c2c(=O)c1-c1cccc(F)c1)n1nc(N(C)C)c2c(N)ncnc21 (stereo not shown)", "inhibition at 0.3 µM", "50 to 75%"]
]}

----------
study-system: UniProtKB P42336
procedure-text: Fluorescent (HTRF) determination of PI3 kinase enzyme activity, PI3Kα
Assay type: biochemical
condition-parameters: 1 uM
quantity-measured: inhibition at 1 µM

{"columns": ["molecule", "recorded-result"],
 "data": [
  ["CC(c1oc2cccc(F)c2c(=O)c1-c1cccc(F)c1)n1nc(N2CCCCC2)c2c(N)ncnc21 (stereo not shown)", "25 to 50%"],
  ["CC(C)Oc1ccc(-c2nn(C(C)c3oc4cccc(F)c4c(=O)c3-c3ccccc3)c3ncnc(N)c23)cc1F (single isomer, unassigned)", "50 to 75%"],
  ["CC(C)Oc1ccc(-c2nn(Cc3oc4cccc(F)c4c(=O)c3-c3cccc(F)c3)c3ncnc(N)c23)cc1F", "25 to 50%"],
  ["CC(c1oc2cccc(F)c2c(=O)c1-c1cccc(F)c1)n1nc(-c2ccc(OC3COC3)c(F)c2)c2c(N)ncnc21 (stereo not shown)", "0 to 25%"],
  ["CC(c1oc2cccc(F)c2c(=O)c1-c1cccc(F)c1)n1nc(-c2ccc(OC3CCOCC3)c(F)c2)c2c(N)ncnc21 (stereo not shown)", "25 to 50%"],
  ["CC(c1oc2cccc(F)c2c(=O)c1-c1cccc(F)c1)n1cnc2c(N3CCN(C)CC3)ncnc21 (stereo not shown)", "0 to 25%"],
  ["CSc1nn(C(C)c2oc3cccc(F)c3c(=O)c2-c2cccc(F)c2)c2ncnc(N)c12 (stereo not shown)", "25 to 50%"],
  ["CC(C)NS(=O)(=O)c1ccc(-c2nn(C(C)c3oc4cccc(F)c4c(=O)c3-c3cccc(F)c3)c3ncnc(N)c23)cc1 (stereo not shown)", "0 to 25%"],
  ["CC(c1oc2cccc(F)c2c(=O)c1-c1ccc(F)cc1)n1cnc2c(N3CCOCC3)ncnc21 (stereo not shown)", "25 to 50%"],
  ["Cc1nc2ccc(-c3nn(C(C)c4oc5cccc(F)c5c(=O)c4-c4cccc(F)c4)c4ncnc(N)c34)cc2o1 (stereo not shown)", "25 to 50%"],
  ["CC(c1oc2cccc(F)c2c(=O)c1-c1cccc(F)c1)n1nc(-c2cc3ccccc3o2)c2c(N)ncnc21 (stereo not shown)", "25 to 50%"],
  ["Cc1n[nH]c2cc(-c3nn(C(C)c4oc5cccc(F)c5c(=O)c4-c4cccc(F)c4)c4ncnc(N5CCOCC5)c34)ccc12 (stereo not shown)", "50 to 75%"],
  ["CC(c1oc2cccc(F)c2c(=O)c1-c1cccc(F)c1)n1nc(-c2cc3ccccc3s2)c2c(N)ncnc21 (stereo not shown)", "0 to 25%"],
  ["CC(c1oc2cccc(F)c2c(=O)c1-c1cccc(F)c1)n1nc(-c2ccc(OC(F)F)c(F)c2)c2c(N)ncnc21 (stereo not shown)", "0 to 25%"],
  ["CC(c1oc2cccc(F)c2c(=O)c1-c1cccc(F)c1)n1nc(N(C)C)c2c(N)ncnc21 (stereo not shown)", "25 to 50%"],
  ["CC(c1oc2cccc(F)c2c(=O)c1-c1cccc(F)c1)n1nc(-c2ccc(N3CCN(C)CC3)c(F)c2)c2c(N)ncnc21 (stereo not shown)", "0 to 25%"],
  ["CC(c1oc2cccc(F)c2c(=O)c1-c1cccc(F)c1)n1nc(-c2cnc3[nH]ccc3c2)c2c(N)ncnc21 (stereo not shown)", "25 to 50%"],
  ["CC(C)Nc1ccc(-c2nn(C(C)c3oc4cccc(F)c4c(=O)c3-c3cccc(F)c3)c3ncnc(N)c23)cc1F (stereo not shown)", "0 to 25%"],
  ["Cc1n[nH]c2cc(-c3nn([C@H](C)c4oc5cccc(F)c5c(=O)c4-c4cccc(F)c4)c4ncnc(N)c34)ccc12", "0 to 25%"],
  ["CC(c1oc2cccc(F)c2c(=O)c1-c1cccc(F)c1)n1ncc2c(N(C)C)ncnc21 (stereo not shown)", "0 to 25%"],
  ["CC(c1oc2cccc(F)c2c(=O)c1-c1cccc(F)c1)n1nc(-c2ccc3c(c2)CNC3=O)c2c(N)ncnc21 (stereo not shown)", "0 to 25%"],
  ["CC(c1oc2cccc(F)c2c(=O)c1-c1cccc(F)c1)n1nc(-c2ccc(N(C)C)c(F)c2)c2c(N)ncnc21 (stereo not shown)", "0 to 25%"],
  ["CC(C)Oc1ncc(-c2nn(C(C)c3oc4cccc(F)c4c(=O)c3-c3cccc(F)c3)c3ncnc(N)c23)cn1 (stereo not shown)", "0 to 25%"],
  ["CC(c1oc2cccc(F)c2c(=O)c1-c1ccc(F)cc1)n1nc(-c2ccc(OC(F)F)c(F)c2)c2c(N)ncnc21 (stereo not shown) [Example 31]", "25 to 50%"],
  ["CC(c1oc2cccc(F)c2c(=O)c1-c1cccc(F)c1)n1nc(-c2ccc(N3CCOCC3)c(F)c2)c2c(N)ncnc21 (stereo not shown)", "0 to 25%"],
  ["CC(c1oc2cccc(F)c2c(=O)c1-c1ccc(F)cc1)n1ncc2c(N)ncnc21 (stereo not shown)", "25 to 50%"],
  ["CCc1nn(C(C)c2oc3cccc(F)c3c(=O)c2-c2cccc(F)c2)c2ncnc(N)c12 (stereo not shown)", "0 to 25%"],
  ["CC(c1oc2cccc(F)c2c(=O)c1-c1cccc(F)c1)n1nc(-c2ccc(CN3CCOCC3)s2)c2c(N)ncnc21 (stereo not shown)", "0 to 25%"]
]}
